Cited source for all entries: patent US4613618A

- System: atherosclerosis lesions
- Assay Summary: Atherosclerosis inducing diet: macroscopic exams (affected animals)
- Format: in vivo, Wistar female rats
- Condition Parameters: clofibrate counted as 1
I'd appreciate it if you could supply Score with respect to the reference clofibrate (animals afflicted with lesions) values for the items below.

Consider the worked cases shown below.
O=C(O)CCCNS(=O)(=O)c1cccc(C(F)(F)F)c1 : 1,83
CCOC(=O)C(C)(C)Oc1ccc(Cl)cc1 [CLOFIBRATE, clofibrate, reference compound] : 1,00
CCOC(=O)CCCNS(=O)(=O)c1cccc([N+](=O)[O-])c1 : 0,39

Then this compound:
## Input Record O=C(O)CCCNS(=O)(=O)c1cccnc1 : what is its Score with respect to the reference clofibrate (animals afflicted with lesions) with atherosclerosis lesions?
## Output 0,37
